molecular target: human Siglec-7 on primary human monocyte-derived dendritic cells (human, UniProt Q9Y286 19-467); experiment: cell-based or functional assay
Sequence (Q9Y286 19-467): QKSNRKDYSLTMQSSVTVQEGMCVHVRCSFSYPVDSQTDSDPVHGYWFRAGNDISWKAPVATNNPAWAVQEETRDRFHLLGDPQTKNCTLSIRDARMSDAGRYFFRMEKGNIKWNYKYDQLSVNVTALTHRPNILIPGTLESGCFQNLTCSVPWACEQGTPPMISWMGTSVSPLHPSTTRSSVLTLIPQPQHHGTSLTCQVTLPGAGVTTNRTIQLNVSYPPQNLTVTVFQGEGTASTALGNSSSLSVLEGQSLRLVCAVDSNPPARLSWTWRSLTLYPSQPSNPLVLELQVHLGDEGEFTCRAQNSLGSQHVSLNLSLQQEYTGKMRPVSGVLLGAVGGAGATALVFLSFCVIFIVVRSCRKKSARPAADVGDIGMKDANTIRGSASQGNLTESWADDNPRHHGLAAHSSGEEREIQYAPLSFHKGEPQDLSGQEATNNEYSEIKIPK
Quantity kind: Receptor downregulation, (EC50) (pM)
Report the value in pM with no unit label.

Lookup: // lookup Receptor downregulation, (EC50) (pM) for S7AB-H8.44.1 (antibody, V domains shown) VH: QVQLVQSGAEVKKPGASVKVSCKASGYAFTAAWMNWVRQAPGQRLEWIGRIFPGLGHTNYAQKFQGRATLTEDTSTSTAYMELSSLRSEDTAVYYCARDYSDYYFDYWGQGTLVTVSS VL: DIQMTQSPSSLSASVGDRVTITCRGSQDINTYLNWYQQKPGKAPKLLIYYTSRLHSGVPSRFSGSGSGTDYTLTISSLQPEDFATYYCQQGNILPWTFGQGTKLEIK
Found: 73.9

Lookup: What do we get for S7AB-H8.30.2 (antibody, V domains shown) VH: QVQLVQSGAEVKKPGASVKVSCKASGYAFTEAWMNWVRQARGQRLEWIGRIFPGYGHTNYAQKFQGRATLTEDTSTSTAYMELSSLRSEDTAVYYCARDYSDYYFDYWGQGTLVTVSS VL: DIQMTQSPSSLSASVGDRVTITCRASQDANTYLNWYQQKPGKAPKLLIYYTSRLHSGVPSRFSGSGSGTDYTLTISSLQPEDFATYYCQQGNLLPWTFGQGTKLEIK ?
Found: 115
